Test: Pharmacokinetics assay in rats (intragastric and tail vein administration, plasma LC/MS/MS)
Format: in vivo
Details: both sexes, Sprague-Dawley (SD), rat, plasma, po, 10 mg/kg, intragastric 10 mg/kg
Structures can show the parent of a compound that is named as a salt.
For each record, write down the corresponding CL/F.
Answers are plain numbers, in mL/min/kg.

Use these answered entries as a reference point.
Compound: Cc1c(/C=C2\C(=O)Nc3ccc(F)cc32)[nH]c2c1C(=O)N(C[C@H](O)CN1CCOCC1)CCC2.Cl
Numeric Result: 33.8
//
Compound: Cc1c(/C=C2\C(=O)Nc3ccc(F)cc32)[nH]c2c1C(=O)N(C[C@H](O)CN1CCOCC1)CCC2.O=C(O)C[C@H](O)C(=O)O
Numeric Result: 29.8
//
Compound: Cc1c(/C=C2\C(=O)Nc3ccc(F)cc32)[nH]c2c1C(=O)N(C[C@H](O)CN1CCOCC1)CCC2 [Example 4, mesylate]
Numeric Result: 24.8

Here is the next item to consider.
Return CL/F for the following compound: CC(O)C(=O)O.Cc1c(/C=C2\C(=O)Nc3ccc(F)cc32)[nH]c2c1C(=O)N(C[C@H](O)CN1CCOCC1)CCC2
27.3
